target: Cbl-b (Homo sapiens); assay: Cbl-b inhibition assay (Cbl-b activity assay, FRET, Biological Example 1; 100 mM NaCl, 60 nM Src kinase); type: biochemical; details: upper bound stated in text lists; read-out: IC50 values in the Cbl-b inhibition assay of Biological Example 1
Sequence (Q13191 36-427): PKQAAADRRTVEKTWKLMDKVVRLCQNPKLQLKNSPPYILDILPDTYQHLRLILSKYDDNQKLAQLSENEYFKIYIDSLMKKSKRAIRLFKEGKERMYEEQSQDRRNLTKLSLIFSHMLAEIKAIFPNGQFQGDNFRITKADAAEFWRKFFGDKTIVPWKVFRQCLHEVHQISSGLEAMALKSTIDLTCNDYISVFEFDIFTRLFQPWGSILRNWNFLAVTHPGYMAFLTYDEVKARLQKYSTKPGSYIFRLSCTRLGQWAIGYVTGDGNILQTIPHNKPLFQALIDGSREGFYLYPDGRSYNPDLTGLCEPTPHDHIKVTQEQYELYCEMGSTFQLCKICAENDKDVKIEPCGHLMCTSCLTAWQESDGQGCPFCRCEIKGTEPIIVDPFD
Below, each entry is listed with its recorded IC50.
outcomeMeasure: IC50

                                    compound  outcomemeasure      result
 0  Cc1cc(C(=O)Nc2cccc(C3(Cc4nncn4C)COC3)c2)n2nccc2n1            IC50    ≤ 300 nM
 1  Cc1cc(C(=O)Nc2cccc(C3([C@@H](F)c4nncn4C)COC3)c2)nc(C2CC2)n1 [Example 669b]            IC50    ≤ 100 nM
 2  C[C@H](c1cc2c(c(C(F)(F)F)c1)CN(c1cccc([C@@](C)(F)C(F)(F)c3nncn3C)c1)C2=O)N1CC[C@H](F)C1            IC50    ≤ 100 nM
 3  Cc1cc(C(=O)Nc2cc([C@H](C)Sc3nncn3C)ccn2)nc(C(F)(F)F)c1            IC50   ≤ 1000 nM
 4  CC(O)C1CN(C(=O)c2ccnc(C(=O)Nc3cccc([C@H](C)Cc4nncn4C)c3)c2)C1 (stereo partly drawn)            IC50  ≤ 10000 nM
 5  Cc1cc(C(=O)Nc2cccc([C@H](C)Cc3nncn3C)c2)nc2ccnn12            IC50    ≤ 300 nM
 6  Cc1c[nH]nc1C[C@H](C)c1cccc(N2Cc3c(cccc3C(F)(F)F)C2=O)c1 (single isomer, unassigned) [Compound 270a]            IC50   ≤ 1000 nM
 7  Cn1cnnc1CC1(c2cccc(N3Cc4c(cc(CN5CC6CC(C5)C6(F)F)cc4C(F)(F)F)C3=O)c2)COC1            IC50    ≤ 100 nM
 8  C=CCC(Sc1nncn1C)c1cccc(NC(=O)c2cc3ccccc3cn2)c1 (stereo not drawn)            IC50  ≤ 10000 nM
 9  COc1cc(C(F)(F)F)cc(C(=O)Nc2cccc([C@H](C)Sc3nncn3C)c2)n1            IC50  ≤ 10000 nM
10  C[C@@H](Cc1nncn1C)c1cccc(NC(=O)c2cccc(C(F)(F)F)n2)c1 [Compound 183b]            IC50  ≤ 10000 nM
11  Cn1cnnc1CC1(c2cccc(N3Cc4c(cc(CN5CCCc6c5cnn6C)cc4C(F)(F)F)C3=O)c2)COC1            IC50    ≤ 100 nM
12  Cn1cnnc1CC1(c2cccc(N3Cc4c(cc(CN5Cc6cccc(Cl)c6C5)cc4C(F)(F)F)C3=O)c2)COC1            IC50    ≤ 100 nM
13  C[C@H](c1cc2c(c(C(F)(F)F)c1)CN(c1cccc(C3(Cc4nncn4C)COC3)c1)C2=O)N1CCC2(CC1)CC2 [Example 558b]            IC50    ≤ 100 nM
14  C[C@H](Cc1nncn1C)c1cc(NC2CCC2)nc(N2Cc3c(cccc3C(F)(F)F)C2=O)c1            IC50    ≤ 300 nM

* * *

Below, each entry is listed with its recorded IC50.
Target: Cbl-b (Homo sapiens)
Assay: Cbl-b activity assay (Cbl-b inhibition assay), TR-FRET of Cbl-b interaction with UbcH5B-Ub
Type: biochemical
Details: assay buffer with 100 mM NaCl, 60 nM Src kinase; read-out: Cbl-b activity IC50
Experimental: The ability of candidate compounds to inhibit Cbl-b activity was measured by monitoring the interaction of Cbl-b with UbcH5B-Ub in the presence of the candidate compound. Fluorescently labeled UbcH5B-Ub was prepared by conjugating ubiquitin (Ub), labeled at its N-terminus with Bodipy-Fluorescein, to UbcH5B, an E2 enzyme, harboring a cysteine to lysine mutation at position 85. […]
outcomeMeasure: IC50

>>> df
                                    molecule  outcomemeasure            result
 0  C[C@H](Cc1nncn1C)c1cc(NC2COC2)cc(N2Cc3c(cccc3C(F)(F)F)C2=O)c1            IC50    301 to 1000 nM
 1  C[C@H](Sc1nncn1C)c1ccnc(NC(=O)c2cccc(OC(F)(F)F)n2)c1            IC50   1000 to 3000 nM
 2  Cc1cc(C(=O)Nc2cccc(C3(Cc4[nH]ncc4C)COC3)c2)nc(C2CC2)n1            IC50          < 100 nM
 3  Cc1cnc(C(=O)Nc2cccc([C@H](C)Sc3nncn3C)c2)cc1C(F)(F)F            IC50  3000 to 10000 nM
 4  C[C@H](Cc1nncn1C)c1cccc(N2Cc3c(cc(C(=O)N4CC(O)C4)cc3C(F)(F)F)C2=O)c1            IC50          < 100 nM
 5  C[C@H](Cc1nncn1C)c1cccc(NC(=O)c2cc(C(=O)N3CC(CO)C3)ccn2)c1            IC50   1000 to 3000 nM
 6  Cn1cnnc1CC1(c2cccc(N3Cc4c(cc(CN5CCC(F)(F)CC5)cc4C(F)(F)F)C3=O)c2)COC1            IC50          < 100 nM
 7  Cc1cncc(C(=O)Nc2cccc([C@H](C)Sc3nncn3C)c2)n1            IC50   1000 to 3000 nM
 8  Cn1cnnc1CC1(c2cccc(N3Cc4c(cccc4C(F)(F)F)C3=O)c2)CC(F)(F)C1            IC50          < 100 nM
 9  CCOc1cc([C@@](C)(F)C(F)(F)c2nncn2C)cc(NC(=O)c2cc(C)nc(C3CC3)n2)n1            IC50     100 to 300 nM
10  COc1cccc2c1CN(Cc1cc3c(c(C(F)(F)F)c1)CN(c1cccc(C4(Cc5nncn5C)COC4)c1)C3=O)C2            IC50          < 100 nM
11  C[C@H](Cc1nncn1C)c1cccc(NC(=O)c2cc(C(F)(F)F)ccn2)c1            IC50   1000 to 3000 nM
12  Cn1cnnc1CC1(c2cccc(N3Cc4c(cc(CN5CCOC6(CCOC6)C5)cc4C(F)(F)F)C3=O)c2)COC1 (stereo not shown)            IC50          < 100 nM
13  Cn1cnnc1[C@@H]1C[C@@H]1c1cccc(N2Cc3c(cccc3C(F)(F)F)C2=O)c1            IC50    301 to 1000 nM
14  Cn1cnnc1CC1(c2cccc(N3Cc4c(cc(OC(F)F)cc4C(F)(F)F)C3=O)c2)COC1            IC50          < 100 nM
15  Cc1cc(C(=O)Nc2cccc(C3(Cc4nncn4C)COC3)c2)nc(C(F)(F)F)n1            IC50          < 100 nM

Origin of values: patent US20220324835A1
